Data origin, for the record: ChEMBL document CHEMBL1145518

Procedure summary: Induction of IFN-gamma secretion in human CD161+ CD3+ NKT cells at 10 ug/ml after 18 hrs relative to basal level
Type: functional
Binary call on Activity with cut-off 4: strictly below means Criterion met, and equality or higher means Criterion not met.

Smiles	Class
CCCCCCCCCCCCCC[C@@H](O)[C@@H](O)[C@H](CO[C@H]1O[C@H](CO)[C@H](O)[C@H](O)[C@H]1O)NC(=O)CCc1ccc(C(F)(F)F)cc1	Criterion met
CCCCCCCCCCCCCC[C@@H](O)[C@@H](O)[C@H](CO[C@H]1O[C@H](CO)[C@H](O)[C@H](O)[C@H]1O)NC(=O)CCCCCCCc1ccccc1	Criterion not met
CCCCCCCCCCCCCC[C@@H](O)[C@@H](O)[C@H](CO[C@H]1O[C@H](CO)[C@H](O)[C@H](O)[C@H]1O)NC(=O)CCc1ccc(CC(C)C)cc1	Criterion met

Task: In plain terms, does `CCCCCCCCCCCCCC[C@@H](O)[C@@H](O)[C@H](CO[C@H]1O[C@H](CO)[C@H](O)[C@H](O)[C@H]1O)NC(=O)CCCc1ccccc1` come in under 4 for Activity?
Output: Criterion met

Task: In plain terms, does `CCCCCCCCCCCCCCCCCCCCCCCCCC(=O)N[C@@H](CO[C@H]1O[C@H](C(=O)O)[C@H](O)[C@H](O)[C@H]1O)[C@H](O)[C@H](O)CCCCCCCCCCCCCC` come in under 4 for Activity?
Output: Criterion met

Task: In plain terms, does `CCCCCCCCCCCCCCCCCCCCCCCCCC(=O)N[C@@H](CO[C@H]1O[C@H](CO)[C@H](O)[C@H](OS(=O)(=O)[O-])[C@H]1O)[C@H](O)[C@H](O)CCCCCCCCCCCCCC.[Na+]` come in under 4 for Activity?
Output: Criterion met

Task: In plain terms, does `CCCCCCCCCCCCCCCCCCCCCCCCCC(=O)N[C@@H](CO[C@H]1O[C@H](CO)[C@H](O)[C@H](O)[C@H]1O)[C@H](O)[C@H](O)CCc1ccccc1` come in under 4 for Activity?
Output: Criterion not met

Task: In plain terms, does `CCCCCCCCCCCCCC[C@@H](O)[C@@H](O)[C@H](CO[C@H]1O[C@H](CO)[C@H](O)[C@H](O)[C@H]1O)NC(=O)CCCCCc1ccccc1` come in under 4 for Activity?
Output: Criterion not met

Task: In plain terms, does `CCCCCCCCCCCCCCCCCCCCCCCCCC(=O)N[C@@H](CO[C@H]1O[C@H](CO)[C@H](O)[C@H](O)[C@H]1O)[C@H](O)[C@H](O)CCCCC` come in under 4 for Activity?
Output: Criterion met

Task: In plain terms, does `CCCCCCCCCCCCCC[C@@H](O)[C@@H](O)[C@H](CO[C@H]1O[C@H](CO)[C@H](O)[C@H](O)[C@H]1O)NC(=O)CCCCCCCCCc1ccccc1` come in under 4 for Activity?
Output: Criterion not met

Task: In plain terms, does `CCCCCCCCCCCCCCCCCCCCCCCCCC(=O)N[C@@H](CO[C@@H]1O[C@H](CO)[C@H](O)[C@H](OS(=O)(=O)[O-])[C@H]1O)[C@H](O)[C@H](O)CCCCCCCCCCCCCC.[Na+]` come in under 4 for Activity?
Output: Criterion met
